- Tested on: mice
- assay-explanation: Neuropharmacological Assay (SmartCube): automated behavioral signature of compound-treated mice compared with a database of reference drug classes
- Assay type: in vivo
- condition-description: probability that activity matches this class of agents, 3.0 mg/kg i.p., 15 min before test
Counter-ions that a name gives are not always drawn.
measured-attribute: AX

Record excerpt, results attached:
> print(dat)
                                   molecule  measurement.target  result.value
1  Cc1sc2c(c1C)CCC(N)C2 (single isomer, unassigned) [Compound 67, hydrochloride]                mice    ND (^ <4%)
2  NC1CCc2csc(Cl)c2C1 (centres unmarked) [Compound 89, hydrochloride]                mice       + (≥4%)
3  Cl.c1cc2c(s1)CC(N1CCOCC1)CC2 (single isomer, unassigned) [Compound 22]                mice    ND (^ <4%)
4  CNC1CCc2cscc2C1.Cl (single isomer, unassigned) [Compound 13]                mice       + (≥4%)
5  CNC1CCc2csc(C#N)c2C1 (single isomer, unassigned) [Compound 134, hydrochloride]                mice    ND (^ <4%)
6  CNC1CCc2c(csc2Cl)C1 (single isomer, unassigned) [Compound 57, hydrochloride]                mice    ND (^ <4%)

Here is the next item to consider.
Query string: Provide AX value for the following molecule: CNC1CCc2cc(C#N)sc2C1 (single isomer, unassigned) [Compound 36, hydrochloride]
Result string: ND (^ <4%)

---

- System: mice
- assay-explanation: Neuropharmacological Assay (SmartCube): automated behavioral signature of compound-treated mice compared with a database of reference drug classes
- Format: in vivo
- condition-description: SmartCube class probability, 3.0 mg/kg i.p., 15 min before test, hydrochloride, 3 mg/kg
- From the text: Neurosci. 2011 Sep. 9; 5: 103 (doi: 10.3389/fnins.2011.00103) (“Roberds”). […] To facilitate testing of multiple compounds for behavioral effects relevant to psychiatric disease, PsychoGenics, Inc. (Tarrytown, NY, “PGI”) developed SmartCube™ an automated system in which behaviors of compound-treated mice are captured by digital video and analyzed with computer algorithms. […]
Structures can show the parent of a compound that is named as a salt.
measured-attribute: PS

> print(dat)
                                   compound  result.value
1  NC1CCc2cscc2C1 (single isomer, unassigned) [Compound 166, hydrochloride]    ND (^ <4%)
2  NC1CCc2scc(F)c2C1 (single isomer, unassigned) [Compound 192, hydrochloride]    ND (^ <4%)
3  Cc1csc2c1CC(N)CC2 (single isomer, unassigned) [Compound 144, hydrochloride]    ND (^ <4%)
4  NC1CCc2cscc2C1 (single isomer, unassigned) [Compound 167, hydrochloride]       + (≥4%)

Here is the next item to consider.
Query string: Provide one value: measured PS of CNC1(C)CCc2sccc2C1 (single isomer, unassigned) [Compound 179, hydrochloride]
Result string: + (≥4%)

---

- Tested on: mice
- assay-explanation: Neuropharmacological Assay (SmartCube): automated behavioral signature of compound-treated mice compared with a database of reference drug classes
- Format: in vivo
- condition-description: SmartCube probability class, 3.0 mg/kg dose, i.p. 15 min before the behavioral test
- From the text: Neurosci. 2011 Sep. 9; 5: 103 (doi: 10.3389/fnins.2011.00103) (“Roberds”). […] To facilitate testing of multiple compounds for behavioral effects relevant to psychiatric disease, PsychoGenics, Inc. (Tarrytown, NY, “PGI”) developed SmartCube™ an automated system in which behaviors of compound-treated mice are captured by digital video and analyzed with computer algorithms. […]
Where a name gives a salt, the structure may show the parent alone.
measured-attribute: SH

> print(dat)
                                   compound  measured.attribute  result.value
1  CNC1COc2c(C(F)(F)F)csc2C1 (single isomer, unassigned) [Compound 310, hydrochloride]                  SH    ND (^ <4%)
2  CNC1Cc2cc(C)sc2C1 (single isomer, unassigned) [Compound 318, hydrochloride]                  SH    ND (^ <4%)
3  CC1(N)CCc2sccc2C1 (single isomer, unassigned) [Compound 281, hydrochloride]                  SH    ND (^ <4%)
4  CNC1COc2c(C3CC3)csc2C1 (single isomer, unassigned) [Compound 324, hydrochloride]                  SH    ND (^ <4%)
